Recorded values, source the supplement of paper PMC10567573.

B1: ZNF24 (parent)
chain: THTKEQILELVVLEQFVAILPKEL

variants of: B1; experiment: protein stability index of a GFP-peptide fusion (GPS, HEK-293T) (PSI 1-6); higher = more stable; details: c terminus: a fixed tail appended;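 note: lentivirally expressed fusions sorted by FACS into six bins by GFP to DsRed ratio, PSI derived from sequencing read proportions per bin multiplied by bin number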
I would appreciate it if you labelled entries Satisfied when protein stability index is 3 or higher, otherwise Not satisfied.

[[record]]
mutation = "V17G"
class_assignment = "Not satisfied"

[[record]]
mutation = "A18F"
class_assignment = "Not satisfied"

[[record]]
mutation = "L13W"
class_assignment = "Not satisfied"

[[record]]
mutation = "P21Q"
class_assignment = "Not satisfied"

[[record]]
mutation = "F16V"
class_assignment = "Not satisfied"


## Input Exam item: decide whether the reported protein stability index for "V11T" is at least 3.
## Output Not satisfied

## Input For "L10D" then?
## Output Not satisfied

## Input For "K4H" then?
## Output Not satisfied

## Input For "A18E" then?
## Output Not satisfied

## Input For "I19G" then?
## Output Not satisfied

## Input For "L20I" then?
## Output Satisfied

## Input For "V12E" then?
## Output Not satisfied
